- assay target: T1, serum purified human Complement Factor D (human, UniProt P00746 26-253)
- T1 construct: Serum purified protein flowed over the captured antibodies; also called CFD; human CFD
- T1 sequence (P00746 26-253): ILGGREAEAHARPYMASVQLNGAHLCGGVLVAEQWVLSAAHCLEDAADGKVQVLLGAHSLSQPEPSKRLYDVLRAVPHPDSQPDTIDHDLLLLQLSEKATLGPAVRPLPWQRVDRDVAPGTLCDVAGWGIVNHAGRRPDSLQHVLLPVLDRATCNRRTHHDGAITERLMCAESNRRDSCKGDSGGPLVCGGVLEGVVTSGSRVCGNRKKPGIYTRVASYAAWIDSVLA
- assay protocol: SPR Biacore, antibody on protein A chip, single cycle kinetics, 25 C;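 also: antibodies captured to roughly 70 RU on the protein A surface in HBS-EP+ running buffer, with kinetic constants derived by BIAevaluation fitting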
In this section, each of the binders is paired with its reported kon.
measured attribute: kon (M⁻¹ s⁻¹)

• 34I54I59D / 54R101V (antibody, V domains shown, KCD119 TAF variant) VH: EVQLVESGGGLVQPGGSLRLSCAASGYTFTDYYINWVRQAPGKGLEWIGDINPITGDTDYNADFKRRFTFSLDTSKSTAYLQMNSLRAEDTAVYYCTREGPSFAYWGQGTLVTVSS VL: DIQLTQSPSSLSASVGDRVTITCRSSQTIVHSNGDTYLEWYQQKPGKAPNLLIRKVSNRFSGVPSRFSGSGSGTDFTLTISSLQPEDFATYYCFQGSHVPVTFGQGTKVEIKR = 1.8e+07
• 54V59D / 101V (antibody, V domains shown, KCD119 TAF variant; full antibody captured on protein A) VH: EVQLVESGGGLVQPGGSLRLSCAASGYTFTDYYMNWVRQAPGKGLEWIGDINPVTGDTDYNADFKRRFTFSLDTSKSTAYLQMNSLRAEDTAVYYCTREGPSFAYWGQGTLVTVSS VL: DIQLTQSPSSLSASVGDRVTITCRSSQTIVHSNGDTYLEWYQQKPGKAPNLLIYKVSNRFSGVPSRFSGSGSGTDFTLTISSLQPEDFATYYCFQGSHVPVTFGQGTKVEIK = 6.94e+06
• 31S48V54V59D / 101V (antibody, V domains shown, KCD119 TAF variant; full antibody captured on protein A) VH: EVQLVESGGGLVQPGGSLRLSCAASGYTFTSYYMNWVRQAPGKGLEWVGDINPVTGDTDYNADFKRRFTFSLDTSKSTAYLQMNSLRAEDTAVYYCTREGPSFAYWGQGTLVTVSS VL: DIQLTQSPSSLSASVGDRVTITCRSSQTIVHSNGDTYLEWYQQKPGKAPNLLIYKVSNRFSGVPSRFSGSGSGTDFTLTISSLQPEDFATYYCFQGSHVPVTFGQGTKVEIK = 5.98e+06
• 54V59D / 32D60W101V (antibody, V domains shown, KCD119 TAF variant; full antibody captured on protein A) VH: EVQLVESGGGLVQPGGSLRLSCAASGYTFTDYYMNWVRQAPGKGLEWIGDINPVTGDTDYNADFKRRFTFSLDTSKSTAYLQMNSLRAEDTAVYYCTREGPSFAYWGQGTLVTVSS VL: DIQLTQSPSSLSASVGDRVTITCRSSQTIVHDNGDTYLEWYQQKPGKAPNLLIYKVSNRWSGVPSRFSGSGSGTDFTLTISSLQPEDFATYYCFQGSHVPVTFGQGTKVEIK = 1.25e+07
• 28H31S54V59D / 101V (antibody, V domains shown, KCD119 TAF variant; full antibody captured on protein A) VH: EVQLVESGGGLVQPGGSLRLSCAASGYHFTSYYMNWVRQAPGKGLEWIGDINPVTGDTDYNADFKRRFTFSLDTSKSTAYLQMNSLRAEDTAVYYCTREGPSFAYWGQGTLVTVSS VL: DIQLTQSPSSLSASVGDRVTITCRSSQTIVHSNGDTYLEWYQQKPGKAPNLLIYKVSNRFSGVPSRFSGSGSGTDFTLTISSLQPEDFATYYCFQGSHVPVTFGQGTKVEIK = 6.65e+06
• 34I54I59D84S / 54R101V (antibody, human IgG1, V domains shown, Human IgG1 kappa; also called OG1965) VH: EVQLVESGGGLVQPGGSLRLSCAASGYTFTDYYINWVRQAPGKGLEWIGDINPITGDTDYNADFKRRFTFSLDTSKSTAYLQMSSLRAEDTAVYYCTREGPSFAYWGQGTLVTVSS VL: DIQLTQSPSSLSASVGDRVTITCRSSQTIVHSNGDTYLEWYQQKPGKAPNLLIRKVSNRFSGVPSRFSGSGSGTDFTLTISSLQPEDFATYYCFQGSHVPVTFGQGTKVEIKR = 2.06e+07
• 31S54I59D / 32W60W101V (antibody, V domains shown, KCD119 TAF variant; full antibody captured on protein A) VH: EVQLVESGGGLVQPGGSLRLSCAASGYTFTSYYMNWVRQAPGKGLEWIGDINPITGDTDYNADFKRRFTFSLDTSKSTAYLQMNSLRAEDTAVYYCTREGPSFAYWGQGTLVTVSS VL: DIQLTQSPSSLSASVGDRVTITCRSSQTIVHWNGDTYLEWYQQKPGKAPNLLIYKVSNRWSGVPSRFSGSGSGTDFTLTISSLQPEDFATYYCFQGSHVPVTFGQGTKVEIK = 3.83e+06
• 31S54I59D / 54G101V (antibody, V domains shown, KCD119 TAF variant; full antibody captured on protein A) VH: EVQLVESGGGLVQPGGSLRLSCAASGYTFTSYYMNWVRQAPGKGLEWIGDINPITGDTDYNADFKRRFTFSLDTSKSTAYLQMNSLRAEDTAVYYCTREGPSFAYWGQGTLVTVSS VL: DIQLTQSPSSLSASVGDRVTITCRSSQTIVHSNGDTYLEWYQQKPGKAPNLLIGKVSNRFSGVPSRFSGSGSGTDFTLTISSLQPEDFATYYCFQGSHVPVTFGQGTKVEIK = 1.2e+07
• 54I59D / 54G60W101 (antibody, V domains shown) VH: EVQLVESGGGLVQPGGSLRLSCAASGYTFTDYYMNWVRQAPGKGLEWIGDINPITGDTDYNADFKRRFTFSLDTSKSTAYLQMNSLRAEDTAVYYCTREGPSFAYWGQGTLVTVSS VL: DIQLTQSPSSLSASVGDRVTITCRSSQTIVHSNGDTYLEWYQQKPGKAPNLLIGKVSNRWSGVPSRFSGSGSGTDFTLTISSLQPEDFATYYCFQGSHVPVTFGQGTKVEIK = 6.83e+06
• 31S54V59D / 54R101V (antibody, V domains shown, KCD119 TAF variant) VH: EVQLVESGGGLVQPGGSLRLSCAASGYTFTSYYMNWVRQAPGKGLEWIGDINPVTGDTDYNADFKRRFTFSLDTSKSTAYLQMNSLRAEDTAVYYCTREGPSFAYWGQGTLVTVSS VL: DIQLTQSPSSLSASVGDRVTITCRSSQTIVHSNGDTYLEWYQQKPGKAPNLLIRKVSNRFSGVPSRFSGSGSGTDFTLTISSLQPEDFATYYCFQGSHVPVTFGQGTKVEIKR = 1.39e+07
